- Experimental target: Adrenergic receptor alpha-1 (Rattus norvegicus, UniProt P15823+P23944+P43140)
- Sequence (P15823 whole entry): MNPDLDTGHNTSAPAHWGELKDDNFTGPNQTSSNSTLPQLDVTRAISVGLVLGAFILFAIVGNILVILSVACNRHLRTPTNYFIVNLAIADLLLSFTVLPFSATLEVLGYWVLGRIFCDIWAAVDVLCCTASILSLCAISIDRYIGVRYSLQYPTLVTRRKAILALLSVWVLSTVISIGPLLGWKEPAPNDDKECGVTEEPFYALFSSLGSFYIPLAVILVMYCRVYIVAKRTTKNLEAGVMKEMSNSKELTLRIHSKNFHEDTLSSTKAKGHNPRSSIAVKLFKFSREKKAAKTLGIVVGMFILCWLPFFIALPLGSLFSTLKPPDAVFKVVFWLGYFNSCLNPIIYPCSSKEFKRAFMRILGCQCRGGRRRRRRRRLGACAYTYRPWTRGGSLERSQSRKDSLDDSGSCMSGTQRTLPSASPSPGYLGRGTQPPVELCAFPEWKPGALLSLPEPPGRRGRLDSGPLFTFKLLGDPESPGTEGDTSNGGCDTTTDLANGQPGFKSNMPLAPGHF
- Sequence (P23944 whole entry): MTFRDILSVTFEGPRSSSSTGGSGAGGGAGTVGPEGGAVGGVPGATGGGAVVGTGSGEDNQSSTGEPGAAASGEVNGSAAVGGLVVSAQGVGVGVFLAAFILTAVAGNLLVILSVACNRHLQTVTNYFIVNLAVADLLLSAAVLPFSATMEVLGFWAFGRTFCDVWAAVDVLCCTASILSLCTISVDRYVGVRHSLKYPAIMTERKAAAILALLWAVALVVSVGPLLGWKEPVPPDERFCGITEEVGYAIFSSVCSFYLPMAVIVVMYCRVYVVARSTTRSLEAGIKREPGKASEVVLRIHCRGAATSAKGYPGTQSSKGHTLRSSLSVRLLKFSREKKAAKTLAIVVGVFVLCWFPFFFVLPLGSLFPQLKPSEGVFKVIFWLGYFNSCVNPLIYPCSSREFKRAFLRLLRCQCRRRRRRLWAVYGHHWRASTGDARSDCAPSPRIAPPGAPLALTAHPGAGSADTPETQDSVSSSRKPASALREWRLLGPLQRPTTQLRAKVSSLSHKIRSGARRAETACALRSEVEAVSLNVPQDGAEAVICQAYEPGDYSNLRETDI
- Sequence (P43140 whole entry): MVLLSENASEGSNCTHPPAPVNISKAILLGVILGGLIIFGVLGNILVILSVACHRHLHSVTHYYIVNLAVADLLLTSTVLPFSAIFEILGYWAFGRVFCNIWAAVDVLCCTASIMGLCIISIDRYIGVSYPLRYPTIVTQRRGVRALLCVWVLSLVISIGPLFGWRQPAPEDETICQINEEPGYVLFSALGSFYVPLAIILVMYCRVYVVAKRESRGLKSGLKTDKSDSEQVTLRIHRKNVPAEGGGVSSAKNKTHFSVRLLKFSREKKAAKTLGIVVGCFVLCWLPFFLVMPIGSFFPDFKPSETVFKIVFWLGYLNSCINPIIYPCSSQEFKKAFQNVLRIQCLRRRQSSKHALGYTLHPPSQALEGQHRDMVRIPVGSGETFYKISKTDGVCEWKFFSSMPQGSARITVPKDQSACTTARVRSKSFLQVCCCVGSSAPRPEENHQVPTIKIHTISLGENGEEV
- Test method notes: Inhibition of [3H]prazosin binding to Alpha-1 adrenergic receptor in rat brain membranes
Endpoint label: IC50 (nM)
Provide the reading as a plain figure in nM.

[[record]]
molecule = "CN1CCN(C2=Nc3ccccc3Nc3ccc(O)cc32)CC1"
unit_symbol = "nM"
measured_result = 260

[[record]]
molecule = "CN1CCN(C2=Nc3ccccc3Nc3ccc(OS(=O)(=O)C(F)(F)F)cc32)CC1"
unit_symbol = "nM"
measured_result = 12


Enquiry: Form field: reported IC50 of CN1CCN(C2=Nc3ccccc3Nc3ccc(Cl)cc32)CC1 [ISOCLOZAPINE]
Return: 64

Enquiry: Which IC50 value is on record for COc1ccc2c(c1)N=C(N1CCN(C)CC1)c1ccccc1N2 ?
Return: 240

Enquiry: Param item = CN1CCN(C2=Nc3cc(O)ccc3Nc3ccccc32)CC1 ; retrieve measured IC50.
Return: 1200

Enquiry: Consider the molecule shown here: COc1ccc2c(c1)C(N1CCN(C)CC1)=Nc1ccccc1N2 What is its recorded IC50?
Return: 120
